These data points were gathered from PubChem BioAssay AID1918948.

Reported viability, T/C values follow for various compounds
- Test system: K-562 leukemia growth, % test/control
- run_description: Anticancer human tumor K-562 cell line growth inhibition;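 note: spheroids exposed to compounds for 7 days; 100% = DMSO vehicle wells and lower values mean fewer viable cells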
- measurement_setup: second compound 0.316 µM; first compound 0.001 µM; stronger effect = lower value; spheroids with HUVEC and MSC
Kindly provide the numeric value in % only, without the unit symbol.

compound CC[C@@]1(O)C(=O)OCc2c1cc1n(c2=O)Cc2cc3c(CN(C)C)c(O)ccc3nc2-1 + NC1CCC(NC2CC2c2ccccc2)CC1 , viability, T/C observed: 64.6

compound CC(C)CC(NC(=O)C(Cc1ccccc1)NC(=O)c1cnccn1)B(O)O (stereo not drawn) + NC1CCC(NC2CC2c2ccccc2)CC1 , viability, T/C observed: 102

compound CC[C@@]1(O)C(=O)OCc2c1cc1n(c2=O)Cc2cc3c(CN(C)C)c(O)ccc3nc2-1 + NC1CC1c1ccc(-c2cccc(O)c2)cc1 , viability, T/C observed: 106

compound CC(C)CC(NC(=O)CNC(=O)c1cc(Cl)ccc1Cl)B1OC(=O)CC(CC(=O)O)(C(=O)O)O1 (stereo not drawn) + NC1CC1c1ccc(-c2cccc(O)c2)cc1 , viability, T/C observed: 99.7
